- Assayed system: histamine-H2 receptors (Cavia porcellus)
- Construct: determined on the isolated atrium or ileum of the guinea-pig; from tissue; host or cells: isolated right atrium of the guinea-pig
- Sequence (P47747 whole entry): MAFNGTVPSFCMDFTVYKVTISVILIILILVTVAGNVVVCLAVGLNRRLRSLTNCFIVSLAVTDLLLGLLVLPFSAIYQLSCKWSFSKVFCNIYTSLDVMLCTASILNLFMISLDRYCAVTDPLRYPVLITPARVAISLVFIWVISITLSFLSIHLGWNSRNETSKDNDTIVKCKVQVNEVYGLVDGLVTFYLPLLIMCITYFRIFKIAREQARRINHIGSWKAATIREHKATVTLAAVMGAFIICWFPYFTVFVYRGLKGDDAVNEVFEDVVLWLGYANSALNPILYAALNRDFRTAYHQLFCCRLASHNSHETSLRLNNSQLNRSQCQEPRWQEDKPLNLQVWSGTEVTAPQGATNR
- Procedure text: cell-based
- Set-up: species or system guinea-pig
- Assay context: isolated right atrium of the guinea pig; read-out: pD2 right atrium (H2-agonistic effect) (converted)
Where a name gives a salt, the structure may show the parent alone.
Quantity kind: EC50 (nM)

Compound: N=C(NCCCc1c[nH]cn1)NCCC(c1ccc(Br)cc1)c1ccccn1 (stereo not drawn)
Quantity kind: EC50
Numeric readout: 83.2

a = Cc1cc(Br)cnc1N(CCNC(=N)NCCCc1c[nH]cn1)Cc1ccccc1 [Example 144, trihydrochloride]
b = NC(=NCCC(c1ccc(F)cc1)c1ccccn1)NCCCc1cnc[nH]1 (stereo not drawn)
Rank a against b by their EC50 values and give the higher one. Indicate which entry you chose by stating its label.
a
(a: 6030 nM, b: 12.6 nM)

###

- Assayed system: H1 receptor (Cavia porcellus)
- Procedure text: cell-based
- Assay context: isolated ileum of the guinea pig
- Excerpt: The new class of structures according to the invention has both an H1 -antagonistic and an H2 -agonistic active component. […] One recognized method for determining H1 -antagonistic activity is the determination of the pA2 -values in vitro (O. ARUNLAKSHANA and H. O. SCHILD (1959) Some quantitative uses of drug antagonists--Br. J. Pharmacol. Chemother. 14, 48-58). Pharmacological Data (determined on the isolated atrium or ileum of the guinea-pig) […]
Where a name gives a salt, the structure may show the parent alone.
Quantity kind: pA2 ileum (H1-antagonistic effect)

Compound: N=C(NCCCc1c[nH]cn1)NCCSC(c1ccccc1)c1ccccn1 (stereo not drawn) [Example 123]
pA2 ileum (H1-antagonistic effect): 7.0
--
Compound: N=C(NCCCc1c[nH]cn1)NCCCC(c1ccccc1)c1ccccn1 (stereo not drawn) [Example 136]
pA2 ileum (H1-antagonistic effect): 6.6
--
Compound: N=C(NCCCc1c[nH]cn1)NCCC(c1ccccc1)c1ccccc1 [Example 78]
pA2 ileum (H1-antagonistic effect): 7.20
--
Compound: Cc1[nH]cnc1CCCNC(=N)NCCC(c1ccccc1)c1ccccc1 [Example 96]
pA2 ileum (H1-antagonistic effect): 6.9
--
Compound: N=C(NCCCc1c[nH]cn1)NCCN(Cc1ccccc1)c1ccccc1 [Example 101, trihydrochloride]
pA2 ileum (H1-antagonistic effect): 7.41
--
Compound: N=C(NCCCc1c[nH]cn1)NCCC(c1ccccc1)c1ccccn1 (stereo not drawn) [Example 127]
pA2 ileum (H1-antagonistic effect): 7.28

###

- Assayed system: H1 receptor (Cavia porcellus, UniProt P31389)
- Sequence (P31389 whole entry): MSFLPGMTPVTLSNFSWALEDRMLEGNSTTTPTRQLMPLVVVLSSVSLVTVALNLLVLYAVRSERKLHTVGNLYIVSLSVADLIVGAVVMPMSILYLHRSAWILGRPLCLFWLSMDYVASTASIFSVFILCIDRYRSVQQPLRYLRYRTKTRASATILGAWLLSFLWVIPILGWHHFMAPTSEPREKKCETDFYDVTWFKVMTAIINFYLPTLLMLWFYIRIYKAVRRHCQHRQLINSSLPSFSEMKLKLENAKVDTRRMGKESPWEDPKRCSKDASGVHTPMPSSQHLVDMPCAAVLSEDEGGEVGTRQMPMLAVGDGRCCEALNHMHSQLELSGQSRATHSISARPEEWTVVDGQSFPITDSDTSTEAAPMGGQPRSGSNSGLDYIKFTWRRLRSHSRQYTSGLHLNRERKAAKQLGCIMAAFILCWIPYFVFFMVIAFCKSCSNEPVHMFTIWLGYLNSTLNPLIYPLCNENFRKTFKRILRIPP
- Procedure text: cell-based
- Assay context: isolated ileum of the guinea pig; read-out: pA2 ileum (H1-antagonistic effect) (converted)
Where a name gives a salt, the structure may show the parent alone.
Quantity kind: Kb (nM)

Solved cases (5 shown):
Compound: Cc1cc(Br)cnc1N(CCNC(=N)NCCCc1c[nH]cn1)Cc1ccccc1 [Example 144, trihydrochloride]
Assayed system: H1 receptor (Cavia porcellus, UniProt P31389)
Numeric readout: 398

Compound: N=C(NCCCc1c[nH]cn1)NCCN(c1ccccc1)c1ccccn1 [Example 147, trihydrochloride]
Assayed system: H1 receptor (Cavia porcellus, UniProt P31389)
Numeric readout: 126

Compound: N=C(NCCCc1c[nH]cn1)NCCC(c1ccc(Cl)cc1)c1ccccn1 (stereo not shown)
Assayed system: H1 receptor (Cavia porcellus, UniProt P31389)
Numeric readout: 31.6

Compound: N=C(NCCCc1c[nH]cn1)NCCN(Cc1ccccc1)c1ccc(Cl)cc1 [Example 103, trihydrochloride]
Assayed system: H1 receptor (Cavia porcellus, UniProt P31389)
Numeric readout: 29.5

Compound: Cc1ccc(C(SCCNC(=N)NCCCc2c[nH]cn2)c2ccccc2)cc1 (stereo not shown)
Assayed system: H1 receptor (Cavia porcellus, UniProt P31389)
Numeric readout: 11500

P = NC(=NCCN(Cc1ccccc1)c1ccccn1)NCCCc1c[nH]cn1 [Example 140, trihydrochloride]
Q = Cc1cc(Br)cnc1CCCCNC(=N)NCCCc1c[nH]cn1 [Example 17, trihydrochloride]
Which has the smaller recorded Kb, P or Q ? Indicate which entry you chose by stating its label.
Q
